melting point values, listed per item

Take a look at these entries with their results.
- Molecule Smiles: "Cn1nc(-c2cnc(N)nc2-c2cccs2)ccc1=O"
  melting point: "270 °C"
- Molecule Smiles: "CC(C)n1nc(-c2cnc(N)nc2-c2cccc(F)c2)ccc1=O"
  melting point: "220 to 221.5 °C"
- Molecule Smiles: "CC(C)n1nc(-c2c(NC(C)(C)C)nc(N)nc2-c2ccccc2)ccc1=O"
  melting point: "202 to 204 °C"
- Molecule Smiles: "CCCCOc1cccc(-c2nc(N)ncc2-c2ccc(=O)n(C(C)C)n2)c1"
  melting point: "130 °C"

Now for the molecule whose melting point we want.
// query Query: melting point; subject: `CC(C)n1nc(-c2c(NCc3ccccn3)nc(N)nc2-c2ccc(F)cc2)ccc1=O`
// result 210 to 212 °C

---

Endpoint Label: melting point

Worked examples, 3 compounds total:
- Molecule Smiles: "CSc1nc(N)nc(-c2ccccc2)c1-c1ccc(=O)n(C(C)C)n1"
  melting point: "221 to 222 °C"
- Molecule Smiles: "C=CCNc1nc(N)nc(-c2ccccc2)c1-c1ccc(=O)n(C(C)C)n1"
  melting point: "191.5 to 192.5 °C"
- Molecule Smiles: "CC(C)n1nc(-c2c(-c3ccccc3)nc(N)[nH]c2=S)ccc1=O"
  melting point: "295 to 299 °C"

Moving on to another compound below.
// query Report melting point for `CSc1nc(N)nc(-c2ccccc2)c1-c1ccc(=O)n(C)n1` please.
// result 233 to 235 °C

---

Property: melting point; scope: individual molecules

Some molecules with known melting point results, for comparison:
- Molecule: "CC(C)n1nc(-c2c(Sc3ccccc3)nc(N)nc2-c2ccccc2)ccc1=O [Example 138]"
  Endpoint Label: "melting point"
  Data Value: "214 to 215 °C"
- Molecule: "CC(=O)Nc1ncc(-c2ccc(=O)n(C(C)C)n2)c(-c2ccccc2)n1 [Example 7]"
  Endpoint Label: "melting point"
  Data Value: "209 to 210 °C"

Here is the next item to consider.
// query Please report the recorded melting point for CC(C)n1nc(-c2c(-c3ccccc3)nc(N)nc2-n2ccnc2)ccc1=O [Example 130] .
// result 255 to 258 °C

---

Catalogue of melting point values

Field: example entries. Status: answers known.
- Compound: "CC(C)n1nc(-c2cnc(N)nc2-c2cccc(Br)c2)ccc1=O [Example 236]"
  melting point: "238 to 240 °C"
- Compound: "CC(C)n1nc(-c2c(NC(=N)N)nc(N)nc2-c2ccccc2)ccc1=O [Example 137]"
  melting point: "272 to 274.5 °C"
- Compound: "CC(C)n1nc(-c2cnc(N)nc2-c2ccc(F)cc2)ccc1=O [Example 13]"
  melting point: "238 to 239 °C"
- Compound: "CC(C)n1nc(-c2cnc(N)nc2-c2cccc(C(F)(F)F)c2)ccc1=O [Example 25]"
  melting point: "163.5 to 165 °C"
- Compound: "CC(C)n1nc(-c2cnc(NC(=O)c3ccccc3)nc2-c2ccccc2)ccc1=O [Example 169]"
  melting point: "116 to 120 °C"

Please find the next compound below.
// query Item under review: CC(C)n1nc(-c2c(-c3ccc(F)cc3)nc(N)nc2[S+](C)[O-])ccc1=O (stereo not shown) [Example 151] . Reported melting point?
// result 238 to 240 °C
